Please note: flash point exactly at 80 °C is label 0. Only values below 80 °C get label 1.

Input: Take the compound `CC=CC(=O)O` and say whether its flash point is less than 80 °C.
Output: label 0

Input: flash point strictly < 80 °C for this compound? CC(N)CCN (configuration not stated)
Output: label 1

Input: Item COC(=O)OC [dimethyl carbonate] : flash point beneath 80 °C, strictly?
Output: label 1

Input: Please determine if `O=C1C=CC(=O)O1` is below 80 °C in terms of flash point.
Output: label 0

Input: flash point under 80 °C? Item: CC(CCl)OC(C)CCl (configuration not stated)
Output: label 0

Input: # check: flash point < 80 °C for CC(C)C(C)O (configuration not stated)
Output: label 1

Input: Just wondering, is flash point of CCCCC(C=O)CC (configuration not stated) below 80 °C?
Output: label 1

Input: Would you kindly verify if flash point of CC(=O)OCc1ccccc1 [benzyl acetate] is strictly less than 80 °C?
Output: label 0

Input: Please check: flash point for `O=C1CCO1` , strictly under 80 °C or not?
Output: label 1

Input: Consider `C=CCCCC` . Does its flash point lie strictly below 80 °C?
Output: label 1

Input: Quick check: does `CC(C)NC(C)C` have flash point under 80 °C?
Output: label 1

====

Field: flash point. Provide a value for each of the compounds that follow.
Write the value in °C as a bare number.

// sample `CC(C)(C)c1ccc(N)cc1` , its flash point was 102

The value of flash point measured for the compound `CC(C)CCC(C)(C)C` turned out to be 13

Lab note: measured flash point of CC(C)CC(C)O (configuration not stated) was 41

According to the records, this compound `CCN(CC)CC` displays flash point of -9

Memo: `NCCNCCN` , reported flash point: 90

Entry `CCC(CC)CC` — recorded flash point = -12

Value of measured flash point for the entry COC(=O)C1CC1 [methylcyclopropanecarboxylate] : 18

====

Answer each item with its documented flash point.
State the answer as a number, implicitly in °C.

So, CC(C)(C)C(C)(C)C [2,2,3,3-Tetramethylbutane] ? Its flash point was -0

The compound CCC(C)(CC)C(C)C [2,3-Dimethyl-3-ethylpentane] showed flash point equal to 15

Reported flash point for CCCC(CC)C(C)CC (centres undefined) [4-Ethyl-3-methylheptane] was 41

// CC(C)(C)CC(C)(C)C [2,2,4,4-Tetramethylpentane] : flash point value = 3

====

Threshold check on flash point: at or above 30 °C gives yes (1), strictly below gives no (0).

Input: Decide: flash point of `C[O][Ge]([O]C)([O]C)[O]C` >= 30 °C?
Output: yes (1)

Input: // inclusive: flash point at least 30 °C? input: `[CH3][Ge]([CH3])([CH3])[Ge]([CH3])([CH3])[CH3]`
Output: no (0)

Input: State whether the measured flash point reaches 30 °C, counting equality as reaching it, for `C=C[CH2][Ge]([CH3])([CH3])[CH3]`
Output: no (0)

Input: Tell me whether flash point is at least 30 °C here: `c1cc[c]([GeH2][c]2ccccc2)cc1`
Output: yes (1)

Input: flash point >= 30 °C for `C[CH2][Ge]([Cl])([Cl])[Cl]` ?
Output: yes (1)

Input: Hi, just wondering whether `[Cl][Ge]([Cl])([c]1ccccc1)[c]1ccccc1` shows flash point of 30 °C or higher.
Output: yes (1)

Input: Is the recorded value of flash point equal to or greater than 30 °C for this molecule? `CCC[CH2][Ge]([Cl])([Cl])[CH2]CCC`
Output: yes (1)

Input: Is flash point at least 30 °C? Consider `C[CH2][Ge]([CH2]C)([CH2]C)[CH2]C`
Output: yes (1)

Input: Kindly determine if flash point recorded for `C=[CH][Ge]([CH2]C)([CH2]C)[CH2]C` is above or exactly 30 °C.
Output: yes (1)

Input: Evaluate `[CH3][Ge]([Cl])([Cl])[Cl]` : flash point at minimum 30 °C?
Output: no (0)

Input: Determine whether this molecule has flash point no lower than 30 °C: `C[N](C)[Ge]([N](C)C)([N](C)C)[N](C)C`
Output: yes (1)

Input: Decide: is the reported value of flash point for `[CH3][Ge]([CH3])([CH2]Cl)[CH2]Cl` equal to or greater than 30 °C?
Output: yes (1)

Input: Is flash point at least 30 °C? Consider `C=C(C)C(=O)O[CH2][Ge]([CH3])([CH3])[CH3]`
Output: yes (1)

Input: Record `CCCC[O][Ge]([O]CCCC)([O]CCCC)[O]CCCC` ; criterion: flash point no lower than 30 °C. Met?
Output: yes (1)

Input: flash point >= 30 °C for `[CH3][Ge]([CH3])([CH3])[Br]` ?
Output: yes (1)

Input: Can `C[C](C)(C)[Ge]([CH3])([CH3])[Cl]` be said to have flash point at or above 30 °C?
Output: yes (1)

====

Mark each entry yes (1) if its flash point sits below 80 °C, and no (0) for all others.

Input: For this compound, is flash point lower than 80 °C? `Cc1cccc(Cl)c1`
Output: yes (1)

Input: flash point under 80 °C? Item: COC(=O)C(C)Oc1ccc(Oc2ccc(Cl)cc2Cl)cc1 (centres undefined) [methyl 2-[4-(2,4-dichlorophenoxy)phenoxy]propanoate]
Output: yes (1)

Input: Consider `CCOc1ccc(N)cc1` . Does its flash point lie strictly below 80 °C?
Output: no (0)

Input: Problem: For the compound CCCSC(=O)Cl [S-propyl chloromethanethioate] , is flash point under 80 °C?
Output: yes (1)

Input: Input `CC(C)(C)c1ccccc1O` ; condition: flash point strictly below 80 °C. Does it hold?
Output: no (0)

Input: Hello, I'm reviewing records and need to know if flash point of `c1ccccc1` is below 80 °C. Could you check?
Output: yes (1)

Input: Item `C=CC(=C)C` : flash point beneath 80 °C, strictly?
Output: yes (1)

Input: Quick check: flash point of `Oc1ccc(Cl)c(Cl)c1Cl` under 80 °C?
Output: yes (1)

Input: Hello, is flash point of the following compound strictly smaller than 80 °C? `Cc1ccc([N+](=O)[O-])cc1C`
Output: no (0)

Input: Below 80 °C on flash point? Entry `CC(C)Nc1nc(Cl)nc(NC2CC2)n1`
Output: no (0)

Input: Does this compound meet the criterion flash point < 80 °C? `CCCCC`
Output: yes (1)

Input: API: query returns whether the compound falls strictly under 80 °C in flash point. Query: `CCc1ccccc1`
Output: yes (1)

Input: Lab log: compare recorded flash point with 80 °C; is it strictly lower for `CCCCCCCC` ?
Output: yes (1)

Input: Please let me know if `Nc1ccc(O)cc1` shows flash point below 80 °C.
Output: no (0)

Input: Below 80 °C on flash point? Entry `CCCCCCCCCCCCO`
Output: no (0)

Input: Dear colleague, could you confirm whether flash point of `COc1ccc(O)c(C(C)(C)C)c1` falls below 80 °C? Thanks.
Output: no (0)

Input: Regarding CC(C)OC(=O)Cc1ccccc1 [propan-2-yl 2-phenylacetate] , kindly confirm whether its flash point is beneath 80 °C.
Output: no (0)

Input: Hello, is flash point of the following compound strictly smaller than 80 °C? `CCCCCCCCCCCCCC`
Output: no (0)

Input: Criterion: flash point strictly below 80 °C. Is it met by `ClC(Cl)(Cl)c1ccccc1` ?
Output: no (0)

Input: Just wondering, is flash point of COC(C)COC(C)COC(C)=O (centres undefined) [2-(2-methoxypropoxy)propyl acetate] below 80 °C?
Output: no (0)

Input: Determine whether this compound shows flash point lower than 80 °C (ties excluded): CC(N)CO (centres undefined)
Output: yes (1)

Input: Please determine if CC(O)CNCC(C)O (centres undefined) [1-(2-hydroxypropylamino)propan-2-ol] is below 80 °C in terms of flash point.
Output: no (0)

Input: Input `COP(=S)(OC)Oc1ccc(C#N)cc1` ; condition: flash point strictly below 80 °C. Does it hold?
Output: no (0)

Input: Does the reported flash point of the following compound sit strictly below 80 °C? `C=CCl`
Output: yes (1)

Input: For `CC1(C)COCN1` , is the recorded flash point below the cut-off of 80 °C?
Output: yes (1)

Input: Consider the compound `ClNc1ccccc1` . Is its flash point strictly less than 80 °C?
Output: no (0)

Input: is_below(flash point, 80 °C) for `CCOP(=S)(OCC)Oc1ccc([N+](=O)[O-])cc1` ?
Output: no (0)

Input: flash point under 80 °C? Item: CC(=O)OCC(C)C [2-methylpropyl acetate]
Output: yes (1)

Input: Dear reviewer, please state whether CCCCN(CCC)N=O [N-butyl-N-propylnitrous amide] has flash point strictly beneath 80 °C.
Output: no (0)

Input: In plain terms, does CC(=O)OC(C)(C)C [tert-butyl acetate] come in under 80 °C for flash point?
Output: yes (1)

Input: Please indicate whether the reported flash point of `CC(C)[C@H](C(=O)O[C@H](C#N)c1cccc(Oc2ccccc2)c1)c1ccc(Cl)cc1` is strictly below 80 °C.
Output: no (0)

Input: Below 80 °C on flash point? Entry `CCN(CC)CC`
Output: yes (1)

Input: Hi there! Is flash point for CC(C)(C)c1ccc(OCC2CO2)cc1 (centres undefined) [2-[(4-tert-butylphenoxy)methyl]oxirane] below 80 °C, do you know?
Output: no (0)

Input: Could you please tell me whether flash point recorded for `CC(C)=CCC/C(C)=C\CC/C(C)=C/CC/C=C(\C)CC/C=C(\C)CCC=C(C)C` is less than 80 °C?
Output: no (0)

Input: Quick check: flash point of O=C(OCCOCCOC(=O)c1ccccc1)c1ccccc1 [2-(2-benzoyloxyethoxy)ethyl benzoate] under 80 °C?
Output: no (0)

Input: Determine whether this compound shows flash point lower than 80 °C (ties excluded): `O=c1[nH]cnc2c1ncn2[C@H]1C[C@H](O)[C@@H](COP(=O)(O)OP(=O)(O)O)O1`
Output: no (0)

Input: Find out if reported flash point for `NCCNCCO` is less than 80 °C
Output: no (0)

Input: Field: below-cutoff. Rule: recorded flash point strictly less than 80 °C. Subject: CCOC(=O)CC(C)=O [ethyl 3-oxobutanoate]
Output: yes (1)

Input: Dear colleague, could you confirm whether flash point of c1cc2c3c(cccc3c1)CC2 [1,2-dihydroacenaphthylene] falls below 80 °C? Thanks.
Output: no (0)

Input: Find out if reported flash point for CCCCN(C(C)=O)c1ccccc1 [N-butyl-N-phenylacetamide] is less than 80 °C
Output: no (0)

Input: Determine if `CCCCCCCO` shows flash point strictly lower than 80 °C.
Output: yes (1)

Input: Take the compound `O=[N+]([O-])c1ccc(-c2ccccc2)cc1` and say whether its flash point is less than 80 °C.
Output: no (0)

Input: Does the reported flash point of `Cc1cc(C)c(C)c(C)c1` stay below 80 °C?
Output: yes (1)
